experimental-system: T1, HLA-A*02:01 class I complex (conditional p*HLA*02:01, biotinylated heavy chain with beta2-microglobulin) (human, biotinylated heavy chain)
T1 construct: UV-labile peptide p* is cleaved and exchanged for the test peptide; also called HLA 2.1
experiment-notes: UV peptide exchange, HLA class I ELISA, % of Pos peptide
metric: Mutant Binding (%)
Give just the number in %; leave the unit off.

# count of solved cases: 3
>>> number("KTYPVQLWV (also called M130) [TP53.C141Y mutant peptide KTYPVQLWV]")
68.9
>>> number("LLGRNSFEM (also called M220) [TP53.V272M mutant peptide LLGRNSFEM]")
50.9
>>> number("YLDSGIHFG (also called M030) [CTNNB1.S37F mutant peptide YLDSGIHFG]")
53.7

Next item in the queue.
q: Consider the binder YLDCGIHSG (also called M020) [CTNNB1.S33C mutant peptide YLDCGIHSG] . State its measured Mutant Binding.
a: 34.8
